B1: DLC1 (parent)
chain: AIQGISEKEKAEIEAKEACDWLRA

Variants of: B1
Experiment: protein stability index of a GFP-peptide fusion (GPS, HEK-293T) (PSI 1-6); higher = more stable;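 further: lentivirally expressed fusions sorted by FACS into six bins by GFP to DsRed ratio, PSI derived from sequencing read proportions per bin multiplied by bin number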
Conditions: c terminus: a fixed tail appended
Response key: satisfied means protein stability index >= 4; not satisfied means protein stability index < 4.

- changes: "S6R"
  assigned category: "satisfied"
- changes: "K16P"
  assigned category: "not satisfied"
- changes: "A1E"
  assigned category: "satisfied"
- changes: "E14W"
  assigned category: "not satisfied"
- changes: "K16A"
  assigned category: "satisfied"
- changes: "L22P"
  assigned category: "satisfied"
- changes: "A15Y"
  assigned category: "satisfied"
- changes: "E12K"
  assigned category: "not satisfied"
- changes: "K16F"
  assigned category: "not satisfied"
- changes: "L22S"
  assigned category: "satisfied"
- changes: "E14N"
  assigned category: "not satisfied"
- changes: "W21F"
  assigned category: "satisfied"
- changes: "W21K"
  assigned category: "satisfied"
- changes: "D20E"
  assigned category: "satisfied"
- changes: "K16R"
  assigned category: "satisfied"
- changes: "W21T"
  assigned category: "satisfied"
- changes: "K8V"
  assigned category: "satisfied"
- changes: "A24I"
  assigned category: "satisfied"
- changes: "G4L"
  assigned category: "not satisfied"
